# Assayed System: cathepsin L (Rattus norvegicus)
# Sequence (P07154 114-334): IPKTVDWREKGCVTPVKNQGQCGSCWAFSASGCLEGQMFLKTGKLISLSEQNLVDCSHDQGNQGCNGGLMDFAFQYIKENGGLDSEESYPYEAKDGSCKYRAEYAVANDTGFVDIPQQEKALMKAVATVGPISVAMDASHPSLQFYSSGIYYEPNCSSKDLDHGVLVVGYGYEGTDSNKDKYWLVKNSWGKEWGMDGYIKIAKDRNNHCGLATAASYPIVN
# Protocol Text: In vitro inhibition of cathepsin L
# Type: biochemical
# Condition Parameters: r rat cathepsin L, substrate N-CBZ-Phe-Arg-AMC, pH 5.0, 10 min incubation at room temperature
pIC50: −log10 of the molar value.
Observable: pIC50

Before answering, review these 2 worked examples.
- CC(C)C[C@H](NC(=O)OCc1ccccc1)C(=O)N[C@@H]1C(=O)N2CCO[C@H]12: 6.22
- O=C(N[C@@H]1C(=O)N2CCO[C@H]12)[C@@H]1CCCN1C(=O)OCc1ccccc1: 5.03

P = O=C(N[C@@H](Cc1ccccc1)C(=O)N[C@@H]1C(=O)N2CCO[C@H]12)OCc1ccccc1
Q = O=C(CCc1ccccc1)N[C@@H](Cc1ccccc1)C(=O)N[C@@H]1C(=O)N2CC(CBr)O[C@@H]12 (stereo partly shown)
### Prompt Choose between P and Q : whose measured pIC50 value is numerically larger? Reply with the label of the item you choose.
### Response Q
(Q: 7.80, P: 6.59)
